Target: UniProt P24941
Test: Enzyme Assay

>  <Compound>
Nc1nc(Nc2ccc(N3CCC(N4CCCC4)CC3)cc2)sc1C(=O)c1ccc2c(c1)OCCO2

>  <Output Unit>
nM

>  <IC50>
3490

$$$$
>  <Compound>
CCc1cccc(C(=O)c2sc(Nc3ccc(N4CCC(N5CCNCC5)CC4)cc3)nc2N)c1

>  <Output Unit>
nM

>  <IC50>
989

$$$$
>  <Compound>
COc1cccc(C(=O)c2sc(Nc3ccc(N4CCC(N5CCCC(O)C5)CC4)cc3)nc2N)c1 (centres undefined)

>  <Output Unit>
nM

>  <IC50>
970

$$$$
>  <Compound>
Cc1cccc(C(=O)c2sc(Nc3ccc(N4CCC(N5CCCCC5)CC4)cc3)nc2N)c1

>  <Output Unit>
nM

>  <IC50>
2920

$$$$
